- studySystem: T1, GST-EZRIN Binding Protein 50 PDZ domain 2 (Homo sapiens (Human)), O14745
- T1 chain: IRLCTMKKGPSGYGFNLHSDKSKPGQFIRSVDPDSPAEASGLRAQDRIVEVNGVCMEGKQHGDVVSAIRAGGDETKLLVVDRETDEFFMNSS
- measurementDescription: G' assay; note: key of the grades not given here
metricName: Classification

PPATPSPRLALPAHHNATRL (modifications not checked) [Na+/Pi cotransporter 2] ... 2 A450 class
PSWRRSSLSESENATSLTTF (modifications not checked) [BLR-1] ... 3 A450 class
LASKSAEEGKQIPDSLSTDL (modifications not checked) [DOCK2] ... 2 A450 class
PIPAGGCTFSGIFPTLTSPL (modifications not checked) [KIA 1481] ... 2 A450 class
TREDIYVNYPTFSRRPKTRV (modifications not checked) [DNAM-1] ... 1 A450 class
TFAAGFNSTGLPHSTTRV (modifications not checked) [Neuroligin] ... 1 A450 class
AWDDSARAAGGQGLHVTAL (modifications not checked) [LPAP] ... 4 A450 class
